meta.source: the supplement of paper PMC12645437

Target: T1, CRBN, Q96SW2;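 also: pooled lentiviral library of zinc finger degron-EGFP fusions in mCherry-positive Jurkat cells, FACS-sorted after compound exposure, with degron abundance counted by next-generation sequencing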
T1 chain: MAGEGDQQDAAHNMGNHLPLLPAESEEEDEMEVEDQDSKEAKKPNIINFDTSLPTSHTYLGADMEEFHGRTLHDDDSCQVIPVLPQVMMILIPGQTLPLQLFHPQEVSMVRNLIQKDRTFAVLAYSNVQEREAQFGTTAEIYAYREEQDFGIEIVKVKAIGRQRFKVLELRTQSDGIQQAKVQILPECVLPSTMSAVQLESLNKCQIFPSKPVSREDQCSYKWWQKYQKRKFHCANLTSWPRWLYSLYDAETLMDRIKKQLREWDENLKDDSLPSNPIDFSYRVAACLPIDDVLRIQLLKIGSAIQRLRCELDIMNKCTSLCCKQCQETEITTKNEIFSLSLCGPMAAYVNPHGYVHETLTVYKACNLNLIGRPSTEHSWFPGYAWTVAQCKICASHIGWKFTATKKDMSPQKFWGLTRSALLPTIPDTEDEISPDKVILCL
Assay: log2 fold change of degron read counts, EGFP-low vs EGFP+ sorted cells (limma voom), compound-induced degradation; higher = more compound-induced degradation of the degron-EGFP fusion; degrons are variants of IKZF1/3 zinc finger 2; compound dose not given here
Details: Jurkat; 18 h; compound: thalidomide
The full ranking holds about 8,300 sequences; the median of “log2 fold change of degron read counts, EGFP-low vs EGFP+ sorted cells (limma voom), compound-induced degradation” is about -1.1, and the highest 2% start at about 3.2. The sample holds the highest values, similar sequences and a random draw of the others, so the mix is not that of the screen.
Please note: Satisfied applies when log2 fold change of degron read counts is 1 or greater, and Not satisfied applies otherwise.

entry_sequence: LVCEICGFFCTQKGNLLRHIKL [46L_47V_49E_50I_52G_53F_54F_55C_67L_, Q9UKT9]
assigned_category: Satisfied
--
entry_sequence: FECEVCGAVFTQKGNLLRHIKL [46F_47E_49E_50V_52G_53A_54V_55F_67L_, Q9UKT9]
assigned_category: Satisfied
--
entry_sequence: LMCEICGFFCTQKGNLLRHIKL [46L_47M_49E_50I_52G_53F_54F_55C_67L_, Q9UKT9]
assigned_category: Not satisfied
--
entry_sequence: FSCNQCGHKFTQKGNLLRHIKL [46F_47S_49N_50Q_52G_53H_54K_55F_67L_, Q9UKT9]
assigned_category: Not satisfied
--
entry_sequence: LGCPICGFQCTQKGNLLRHIKL [46L_47G_49P_50I_52G_53F_54Q_55C_67L_, Q9UKT9]
assigned_category: Satisfied
--
entry_sequence: FRCPICGHTFTQKGNLLRHIKL [46F_47R_49P_50I_52G_53H_54T_55F_67L_, Q9UKT9]
assigned_category: Not satisfied
--
entry_sequence: LQCEICGFFCTQKGNLLRHIKL [46L_47Q_49E_50I_52G_53F_54F_55C_67L_, Q9UKT9]
assigned_category: Satisfied
--
entry_sequence: LECPICGFQCTQKGNLLRHIKL [46L_47E_49P_50I_52G_53F_54Q_55C_67L_, Q9UKT9]
assigned_category: Satisfied
--
entry_sequence: FYCPQCGAFFTQKGNLLRHIKL [46F_47Y_49P_50Q_52G_53A_54F_55F_67L_, Q9UKT9]
assigned_category: Not satisfied
--
entry_sequence: FHCPICGAKFTQKGNLLRHIKL [46F_47H_49P_50I_52G_53A_54K_55F_67L_, Q9UKT9]
assigned_category: Not satisfied
--
entry_sequence: FICPICGAYFTQKGNLLRHIKL [46F_47I_49P_50I_52G_53A_54Y_55F_67L_, Q9UKT9]
assigned_category: Satisfied
--
entry_sequence: FKCEVCGAAFTQKGNLLRHIKL [46F_47K_49E_50V_52G_53A_54A_55F_67L_, Q9UKT9]
assigned_category: Not satisfied
--
entry_sequence: FRCPICGHEFTQKGNLLRHIKL [46F_47R_49P_50I_52G_53H_54E_55F_67L_, Q9UKT9]
assigned_category: Not satisfied
--
entry_sequence: FCCPICGRMFTQKGNLLRHIKL [46F_47C_49P_50I_52G_53R_54M_55F_67L_, Q9UKT9]
assigned_category: Not satisfied
--
entry_sequence: FRCPVCGAYFTQKGNLLRHIKL [46F_47R_49P_50V_52G_53A_54Y_55F_67L_, Q9UKT9]
assigned_category: Satisfied
--
entry_sequence: FVCEICGAAFTQKGNLLRHIKL [46F_47V_49E_50I_52G_53A_54A_55F_67L_, Q9UKT9]
assigned_category: Satisfied
--
entry_sequence: FDCEVCGAAFTQKGNLLRHIKL [46F_47D_49E_50V_52G_53A_54A_55F_67L_, Q9UKT9]
assigned_category: Satisfied
--
entry_sequence: FWCPICGAKFTQKGNLLRHIKL [46F_47W_49P_50I_52G_53A_54K_55F_67L_, Q9UKT9]
assigned_category: Not satisfied
--
entry_sequence: FMCEVCGAVFTQKGNLLRHIKL [46F_47M_49E_50V_52G_53A_54V_55F_67L_, Q9UKT9]
assigned_category: Not satisfied
